Where do these numbers come from? They come from patent US8889684B2.

Molecular target: B-Raf (V600E)-kinase (Homo sapiens (Human), UniProt P15056, V600E)
Sequence (P15056 whole entry V600E): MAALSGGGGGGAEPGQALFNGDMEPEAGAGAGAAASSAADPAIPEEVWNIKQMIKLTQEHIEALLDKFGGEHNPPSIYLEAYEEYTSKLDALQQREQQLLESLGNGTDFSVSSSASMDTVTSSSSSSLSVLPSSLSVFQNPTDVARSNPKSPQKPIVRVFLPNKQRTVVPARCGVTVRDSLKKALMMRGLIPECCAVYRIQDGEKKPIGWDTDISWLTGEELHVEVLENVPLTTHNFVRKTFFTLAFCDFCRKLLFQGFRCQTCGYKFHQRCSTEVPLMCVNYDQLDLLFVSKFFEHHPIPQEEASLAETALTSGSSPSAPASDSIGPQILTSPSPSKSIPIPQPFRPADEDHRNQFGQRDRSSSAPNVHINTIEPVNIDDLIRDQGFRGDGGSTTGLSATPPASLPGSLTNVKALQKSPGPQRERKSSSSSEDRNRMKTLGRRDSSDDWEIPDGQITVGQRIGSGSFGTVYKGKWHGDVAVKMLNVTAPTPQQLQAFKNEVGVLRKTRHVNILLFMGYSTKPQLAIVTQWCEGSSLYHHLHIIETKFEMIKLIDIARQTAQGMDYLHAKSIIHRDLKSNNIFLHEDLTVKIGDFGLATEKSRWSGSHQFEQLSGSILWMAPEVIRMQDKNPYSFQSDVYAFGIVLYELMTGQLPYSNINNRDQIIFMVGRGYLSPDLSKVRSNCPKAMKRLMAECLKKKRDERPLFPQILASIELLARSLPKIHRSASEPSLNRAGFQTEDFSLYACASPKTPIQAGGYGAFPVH
Assay: Kinase test B-Raf (V600E)
Settings: 250 μM ATP, biotinylated MEK1 substrate
pIC50: −log10 of the molar value.
measured_quantity: pIC50

CCCS(=O)(=O)Nc1ccc(F)c(-n2cc(-c3cncc(OC)c3)c3nc(N4CCN(CCOC)CC4)ccc32)c1F; 6.90
CCCS(=O)(=O)Nc1ccc(F)c(-n2cc(-c3cncnc3)c3nc(N(C)C4CCN(C)CC4)ncc32)c1F; 8.40
CCCS(=O)(=O)Nc1ccc(F)c(-n2cc(-c3cncnc3)c3nc(N(C)C4CCNCC4)ncc32)c1F; 7.39
CCCS(=O)(=O)Nc1ccc(F)c(-n2cc(-c3cncnc3)c3nc(N(C)C4CCN(CCOC)CC4)ncc32)c1F; 7.38

----------
Target: B-Raf (V600E)-kinase (Homo sapiens (Human), UniProt P15056, V600E)
Test: Kinase test B-Raf (V600E)
Conditions: 250 μM ATP, biotinylated MEK1 substrate
// assign yes (1) if IC50 falls strictly below 20 nM, else no (0) (ties count as no (0))

CCCS(=O)(=O)Nc1ccc(F)c(-n2cc(-c3cncc(OC)c3)c3nc(N(C)C4CCN(C)CC4)cnc32)c1F; yes (1)
CCCS(=O)(=O)Nc1ccc(F)c(-n2cc(-c3cncnc3)c3nc(N(C)C4CCN(C5CC5)CC4)ncc32)c1F; no (0)
CCCS(=O)(=O)Nc1ccc(F)c(-n2cc(-c3cncc(OC)c3)c3nc(N4CCN(C)CC4)ccc32)c1F; no (0)
CCCS(=O)(=O)Nc1ccc(F)c(-n2cc(-c3cncc(OC)c3)c3nc(N4CCN(C)CC4)ncc32)c1F; no (0)
CCCS(=O)(=O)Nc1ccc(F)c(-n2cc(-c3cncc(OC)c3)c3nc(N(C)C4CCN(C)CC4)ncc32)c1F; yes (1)
CCCS(=O)(=O)Nc1ccc(F)c(-n2cc(-c3cncnc3)c3nc(N(C)C4CCN(CC)CC4)ncc32)c1F; yes (1)
